# Test system: LOX IMVI melanoma
# assayComment: NCI-60 one-dose screen, 48 h
# condition: 10 µM unless noted
About 83,000 compounds went through this panel and 20% of them were active in at least one assay; those are over-represented in the sample as a whole. The source made the active and inactive calls. Rule for the calls: active = growth percent below 10; inactive = the rest.
Would you mind answering with one of these outcomes? active, inactive

What classification did O=c1[nH]c2cc(Cl)ccc2n1C1CCN(c2ccc3nnc(Cl)n3n2)CC1 end up with in this test?
inactive

Kindly provide the recorded test outcome for the following compound: CN1C(=O)/C(=C/C=C/c2ccco2)SC1=S
inactive

Record request — test call for NS(=O)(=O)Oc1ccc2nc(Nc3ccc(F)c(F)c3)ccc2c1
inactive

Query: recorded result category for C/C(=C(/c1ccc(O)cc1)c1ccc(OCCN(C)C)cc1)c1ccc(Cl)cc1 in this test
active

// param item: COc1ccc([C@H]2[C@H](O)C(=O)N2c2cc(OC)c(OC)c(OC)c2)cc1 ; yields the recorded call
inactive

----------
# Tested on: HCT-15 colon
# assayComment: NCI-60 one-dose screen, 48 h
# condition: 10 µM unless noted
The panel holds about 83,000 compounds, 20% with a hit somewhere; the sample as a whole holds those more often. The source made the active and inactive calls. The calls were made as follows: active = growth percent below 10; inactive = the rest.
Your answer must be one of the following: active, inactive

Status in this test for O=C(COc1ccc(C2SCC(=O)N2c2ccccc2)cc1)c1ccccc1 (centres undefined) ?
inactive

Tell me the assay call for Cn1cc(-c2nn3cc(-c4cccnc4)nc3s2)c2cc(F)ccc21 please.
inactive

So what was the verdict on C#C[C@]1(O)CC[C@H]2[C@@H]3CC=C4c5sc(Nc6cc(OC)ccc6OC)nc5CC[C@]4(C)[C@H]3CC[C@@]21C in this test?
inactive

Field: outcome | Entry: Cc1ccc(C2CC(c3ccc(Nc4nc(NCCO)nc(Nc5ccc(Cl)cc5)n4)cc3)=Nc3c(N)nc(N)nc3N2)cc1 (centres undefined)
active

// outcome(item) with item = O=C(NCCCNc1cc(-c2cn(-c3ccccc3)nc2-c2cccc(O)c2)ccn1)Nc1cccc(C(F)(F)F)c1
active

Tell me the recorded outcome of this test for CC(=O)NC(C)(C)C(=O)N[C@@H](C)C(=O)NC(C)(C)C(=O)N[C@@H](C)C(=O)NC(C)(C)C(=O)N[C@@H](C)C(=O)N[C@@H](CCC(N)=O)C(=O)NC(C)(C)C(=O)N[C@H](C(=O)NC(C)(C)C(=O)NCC(=O)N[C@@H](CC(C)C)C(=O)NC(C)(C)C(=O)N1CCC[C@H]1C(=O)N[C@H](C(=O)NC(C)(C)C(=O)NC(C)(C)C(=O)N[C@@H](CCC(N)=O)C(=O)N[C@@H](CCC(N)=O)C(=O)N[C@H](CO)CC1CCCCC1)C(C)C)C(C)C .
inactive

For COc1c([C@@H](CC(C)C)OC(C)=O)ccc2c1C(=O)OCc1cc(C)cc(O)c1O2 , what call appears in the results of this test?
inactive

What is the recorded call for this compound in the test? C/C(=N/Nc1nc(N/N=C(/C)c2ccc([N+](=O)[O-])cc2)nc(N2CCOCC2)n1)c1ccc([N+](=O)[O-])cc1
inactive

Please state the recorded outcome for this compound: Cc1ccc(/C=C/c2nn3c(-c4ccco4)nnc3s2)cc1
inactive

Recorded call for Cc1cn(-c2cc(NC(=O)c3cncc(C#Cc4cnc5ccc(OCCCS(C)(=O)=O)nn45)c3)cc(C(F)(F)F)c2)cn1 ?
inactive

Can you look up the reported call for CC[C@H](C)[C@H]1NC(=O)[C@@H]([C@H](O)C(C)C)NC(=O)[C@@H](C)N(C)C(=O)[C@H](C)N(C)C(=O)[C@H](CC(C)C)NC(=O)[C@H](CC(C)C)N(C)C(=O)[C@H](C)N(C)C1=O for me?
active

Outcome? COc1cc(/C=N/Nc2ccnc3cc(Cl)ccc23)cc(OC)c1O
active

Answer briefly: the call reported for O=S(=O)(Nc1ccc(-c2nc(-c3cccc(O)c3)c(-c3ccnc(Br)c3)[nH]2)cc1)c1ccccc1 in this assay.
inactive

Call for entry Oc1ccc(-c2nnc(SCc3ccc(O)c4ncccc34)o2)cc1 :
active

Kindly provide the recorded test outcome for the following compound: C/C(=C(/C)C1CC1CCN(C(=O)c1ccccn1)S(=O)(=O)c1ccc(C)cc1)C1CCCCC1 (centres undefined)
inactive

Please state the recorded outcome for this compound: Cc1[nH]nc2ccc(-c3nc4cnc(N5CCN(C)CC5)cn4c3Nc3ccc(F)cc3Br)cc12
inactive

Outcome? CCN(CC)c1ccc2cc(C(=O)NCCOCCOCCOCCn3cc(CCC(=O)Nc4ccc(C(=O)c5ccc(NC(=O)OC(C)(C)C)cc5)cc4)nn3)c(=O)oc2c1
inactive

Check the results log: what was the call for CCOC(=O)c1ccc(N/C=C/C(=O)c2ccccc2)cc1 ?
inactive

How did this test come out for CC(=O)c1sc(Nc2cccc(Nc3nc(C)c(C)s3)c2)nc1C ?
inactive

Tell me the assay call for N#Cc1c(NC(=O)c2ccccc2C(F)(F)F)sc2c1CCC(=O)C2 please.
active

What was the test verdict on O=C(CCCCCCN1CC(=O)N2[C@@H](c3ccc(Cl)c(F)c3)c3[nH]c4ccccc4c3C[C@H]2C1=O)NO ?
inactive

# outcome recorded in this test, key = O=[N+]([O-])c1ccc(-c2nnc(SCc3ccc(O)c4ncccc34)o2)cc1
inactive

In this assay, the call recorded for CCOC(=O)Nc1ccc(-c2nc(-c3cccc(O)c3)c(-c3ccnc(Br)c3)[nH]2)cc1 was what?
inactive

I would be grateful if you could indicate the recorded call for NS(=O)(=O)Oc1ccc2nc(Nc3ccc(F)c(F)c3)ccc2c1 .
inactive

Kindly provide the recorded test outcome for the following compound: COc1ccc(Cn2cc3c(c2-c2cc(OC)c(OC)c(OC)c2)CCCc2cnoc2-3)cc1
inactive

Can you look up the reported call for O=C1/C(=C/c2ccccc2[N+](=O)[O-])Oc2ccc(O)cc21 for me?
active

Could you kindly confirm the outcome this assay logged for CCN1C(=O)N(CC)C2SC(N/N=C/c3ccccc3)=NC21 (centres undefined) ?
inactive

Recorded test outcome, item O=C1Nc2ccc(Br)cc2/C1=N\c1nnc(-c2ccc(Cl)cc2)o1
inactive

Per the assay record, what outcome was assigned to C/C(Cc1ccc(Cl)cc1)=C(/c1ccccc1)c1ccc(OCCN)cc1 ?
inactive

Assay outcome for O=C(/C=C1\C=CN(CCCCCCF)c2ccccc21)n1ccc2ccccc21 : what was it?
inactive

Tell me the recorded outcome of this test for Brc1cccc(/C=N/Nc2nc(N/N=C/c3cccc(Br)c3)nc(N3CCOCC3)n2)c1 .
active

Record lookup: outcome of this test for NS(=O)(=O)c1ccc(Nc2nc(N/N=C/c3ccc([N+](=O)[O-])cc3)nc(Nc3ccccc3)n2)cc1 ?
inactive

# fetch the recorded call for COc1cc2c3c(n(CCCN4CCC[C@H]4C(N)=O)c(=O)c2cc1OC)-c1cc2c(cc1C3=O)OCO2 here
inactive

Returns: the outcome recorded for COc1ccc2c(c1)c(-c1nnc(N)nc1-c1cn(C)c3ccccc13)cn2C in this assay.
inactive

----------
# Tested on: NCI-H226 lung
# assayComment: NCI-60 one-dose screen, 48 h
# condition: 10 µM unless noted
About 83,000 compounds went through this panel and 20% of them were active in at least one assay; those are over-represented in the sample as a whole. Calls of active or inactive are those of the source. Rule for the calls: active = growth percent below 10; inactive = the rest.
Output constraint: value belongs to yes = active, no = inactive

Identify the outcome logged in this assay for the molecule shown: O=C1c2c(c3c4cc(O)ccc4oc3c3[nH]c4ccccc4c23)C(=O)N1O
no

Can you look up the reported call for Oc1ccc(CSc2nnc(-c3ccccc3)n2-c2ccccc2)c2cccnc12 for me?
no

Give the logged outcome of this assay for the following molecule: C=C(C)[C@@H]1CC[C@]2(COS(C)(=O)=O)CC[C@]3(C)[C@H](CC[C@@H]4[C@@]5(C)CCCNC(C)(C)[C@@H]5CC[C@]43C)[C@@H]12
no

Called result for CN(C)C(=O)C1=NC(CO)C(=O)N(c2ccc(Cl)cc2)N1 (stereo not drawn)
no

What call does the record list for O=C(Nc1cc(Cl)cc(Cl)c1)Nc1nc2ccc([N+](=O)[O-])cc2s1 ?
yes

State the result this test recorded for COc1ccc(CCN2C(=O)/C(=C/c3nc(CO)cs3)SC2=S)cc1 .
no

Hi, do you know how C=C1C(=O)O[C@@H]2C[C@@H](C)/C=C\C(=O)[C@](C)(OC(C)=O)C[C@H](OC(=O)/C(C)=C\C)[C@@H]12 came out in this test?
yes

Test call for this molecule, please: CCOC(=O)C1=C(C)Nc2nc3ccccc3n2C1c1ccccc1 (stereo not drawn)
no

Each molecule tested received a call. Report the one for O=C(Cn1cc(CN2C(=O)c3ccc([N+](=O)[O-])cc3C2=O)nn1)Nc1ccccc1Br .
no

Given Cc1ccc(-c2cc(-c3ccc(N(C)C)cc3)n3c(n2)nc2ccccc23)cc1 , state the outcome it received in this test.
no

Hey, what did the test say about CC[C@H](C)[C@H]1NC(=O)[C@@H]([C@H](O)C(C)C)NC(=O)[C@@H](C)N(C)C(=O)[C@H](C)N(C)C(=O)[C@H](CC(C)C)NC(=O)[C@H](CC(C)C)N(C)C(=O)[C@H](C)N(C)C1=O ?
yes

Assay outcome for CC1CCN(S(=O)(=O)c2ncsc2-c2ccccc2)CC1 : what was it?
no

Can you look up the reported call for CCN1CCN(Cc2ccc(C(=O)Nc3nc4ccc(Oc5ccnc(C(=O)NC)c5)cc4s3)cc2C(F)(F)F)CC1 for me?
no

Lab log entry: Cc1ccc(NC(=O)c2ccc(CN3CCN(C)CC3)c(I)c2)cc1Oc1ccc(-c2[nH]nc3ncnc(N)c23)cc1 — outcome as called in the assay?
no

Any idea what this test logged for COc1cnc2c(c1)C(=O)c1c-2n(CCCn2ccnc2)c(=O)c2cc(OC)c(OC)cc12 ?
no

What classification did CCN1C(=O)N(CC)C2SC(N/N=C/c3ccccc3)=NC21 (stereo not drawn) end up with in this test?
no

Look up the recorded call for C#C[C@]1(O)CC[C@H]2[C@@H]3CC=C4c5sc(Nc6cccc(Cl)n6)nc5CC[C@]4(C)[C@H]3CC[C@@]21C in this test.
no

Could you please tell me the result logged for O=c1oc2ccc(-c3ccc(F)cc3F)cc2c(=O)n1-c1cccc(C(F)(F)F)c1 in this assay?
no
